Entries with their measured pIC50, system UniProt:P10635:
pIC50: −log10 of the molar value.

Task item: Fill in the recorded pIC50 for this compound, with UniProt:P10635 as test system: c1cnc2c(c1)CCC[C@@H]2N(CCCN1CCNCC1)Cc1nc2ccccc2[nH]1
Sequence (P10635 whole entry): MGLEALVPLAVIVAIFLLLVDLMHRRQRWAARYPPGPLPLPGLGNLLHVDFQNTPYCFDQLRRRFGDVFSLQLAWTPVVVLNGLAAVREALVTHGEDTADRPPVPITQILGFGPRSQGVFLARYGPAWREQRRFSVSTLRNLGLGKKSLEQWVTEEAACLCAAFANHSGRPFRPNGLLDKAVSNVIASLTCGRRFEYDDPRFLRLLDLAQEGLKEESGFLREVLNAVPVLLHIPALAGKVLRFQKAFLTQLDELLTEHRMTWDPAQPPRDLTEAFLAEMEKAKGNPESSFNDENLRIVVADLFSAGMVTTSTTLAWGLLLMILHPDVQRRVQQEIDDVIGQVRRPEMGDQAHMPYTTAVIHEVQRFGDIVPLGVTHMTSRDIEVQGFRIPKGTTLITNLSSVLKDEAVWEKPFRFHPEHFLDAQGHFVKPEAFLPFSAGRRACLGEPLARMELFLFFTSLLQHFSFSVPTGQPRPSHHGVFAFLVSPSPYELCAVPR
Reply: < 4.70

Task item: Another compound to check: CCN1CCN(CCCN(C[C@H]2Cc3ccccc3CN2)[C@H]2CCCc3cccnc32)CC1
Reply: < 4.70

Task item: Another compound to check: c1cnc2c(c1)CCC[C@@H]2N(CCCN1CCNCC1)Cc1nc2ccccc2s1
Reply: < 4.70

* * *

# assay protocol: Stability in mouse liver microsomes assessed as parent compound remaining at 0.5 uM after 10 mins by LC-MS analysis
For each entry below, report its remaining at 10 min, 0.5 µM value.
Please give a number only; it is taken to be in %.

Task item: I have this compound here, c1ccc2c(c1)CN[C@@H](CN(CC1CCNCC1)[C@H]1CCCc3cccnc31)C2 , and I need its recorded remaining at 10 min, 0.5 µM.
Reply: 13

Task item: Another compound to check: c1cnc2c(c1)CN[C@H](CN(CCCN1CCNCC1)[C@H]1CCCc3cccnc31)C2
Reply: 63

Task item: Another compound to check: c1cnc(CN(CCCN2CCNCC2)[C@H]2CCCc3cccnc32)nc1
Reply: 78

* * *

# tgt: C-X-C chemokine receptor type 4 (Homo sapiens)
# Sequence (P61073 whole entry): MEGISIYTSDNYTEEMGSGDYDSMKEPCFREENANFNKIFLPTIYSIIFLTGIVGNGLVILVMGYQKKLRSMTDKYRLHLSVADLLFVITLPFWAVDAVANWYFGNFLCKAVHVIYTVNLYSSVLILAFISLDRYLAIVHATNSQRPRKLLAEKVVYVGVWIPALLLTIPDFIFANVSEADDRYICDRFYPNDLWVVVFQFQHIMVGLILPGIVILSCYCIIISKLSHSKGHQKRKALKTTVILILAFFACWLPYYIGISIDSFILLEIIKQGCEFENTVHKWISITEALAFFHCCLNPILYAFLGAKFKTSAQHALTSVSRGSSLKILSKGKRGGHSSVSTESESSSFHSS
# assay protocol: Antagonist activity at CXCR4 in human CCRF-CEM cells assessed as inhibition of […]-induced calcium flux pretreated for 25 mins followed by […] addition measured for 90 secs by calcium-dye based assay
measurement type: pIC50
Quick note: pIC50 means taking -log10 of the concentration in moles per liter.

Task item: I have this compound here, CC(C)N1CCN(CCCN(C[C@H]2Cc3ccccc3CN2)[C@H]2CCCc3cccnc32)CC1 , and I need its recorded pIC50.
Reply: 7.21

Task item: Another compound to check: c1ccc2c(c1)CN[C@@H](CN(CC[C@@H]1CCCNC1)[C@H]1CCCc3cccnc31)C2
Reply: 6.79

Task item: Another compound to check: c1ccc2c(c1)CN[C@@H](CN(CCC1CCNCC1)[C@H]1CCCc3cccnc31)C2
Reply: 6.82

Task item: Another compound to check: CN1CCN(CCCN(C[C@H]2Cc3ccccc3CN2)[C@H]2CCCc3cccnc32)CC1
Reply: 6.90

Value source: ChEMBL document CHEMBL4145594
